B1: CCDC6 (parent)
chain: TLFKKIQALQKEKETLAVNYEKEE

- Variants of: B1
- Experiment: protein stability index of a GFP-peptide fusion (GPS, HEK-293T) (PSI 1-6); higher = more stable;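 note: lentivirally expressed fusions sorted by FACS into six bins by GFP to DsRed ratio, PSI derived from sequencing read proportions per bin multiplied by bin number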
- Conditions: c terminus: a fixed tail appended
Entries and their protein stability index values follow.
Please respond with just the number, no unit label.

> print(dat)
    var  result.number
1   K5Q           3.36
2   I6W            3.4
3   K4T           4.27
4  K22I           2.74
5  E14K           2.94

Please indicate protein stability index recorded for A8N
3.75

Consider the variant E14Q and give its recorded protein stability index.
3.11
